Reference for the values: PubChem BioAssay AID1159580

Each entry below lists one item and its recorded normalized growth value.
Assay: chemical genetic growth profiling, strain panel (AID 1159580);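 note: tested at 20 µM; growth read once vehicle control cultures reached saturation at 30 °C; 1 = growth at the plate median or of vehicle wells; lower values mean less growth of the strain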
Conditions: S. cerevisiae deletion strains, growth OD, locus YOR070C, strain gyp1, hits give low values
In all, about 5,500 compounds went through this assay and about 2,000 (36%) were called active. Roughly 18% stayed inconclusive and do not appear here. The list shows a part of the results.
A bare number is all that is needed in reply.

These solved cases illustrate the format of a correct answer.
molecule="CCC(C)[C@H]1O[C@]2(C=C[C@@H]1C)C[C@@H]1C[C@@H](C/C=C(\\C)[C@@H](OC3C[C@H](OC)C(O[C@H]4C[C@H](OC)[C@@H](O)[C@H](C)O4)[C@H](C)O3)[C@@H](C)/C=C/C=C3\\CO[C@@H]4[C@H](O)C(C)=C[C@@H](C(=O)O1)[C@]34O)O2 (stereo partly drawn)" assay_result=0.837
molecule="COc1ccccc1OCC(O)CO (stereo not drawn)" assay_result=1.02

Give its normalized growth value. Item: "CC(C)C[C@@H](CN)CC(=O)O" 1.02

Requested field: normalized growth. Item: "CCOC(=O)[C@H](CCc1ccccc1)N[C@@H](C)C(=O)N1CCC[C@H]1C(=O)O" 0.963

Request the reported normalized growth associated with NCC(N)C(=O)c1ccccc1 (stereo not drawn) 1.04

Given "CC(C)=CCc1c2c(c3occ(-c4ccc(O)cc4)c(=O)c3c1O)C=CC(C)(C)O2" , state its recorded normalized growth. 0.812

May I ask what normalized growth has been recorded for "NS(=O)(=O)c1cc2c(cc1Cl)NC(CSCc1ccccc1)=NS2(=O)=O" ? 1

State the recorded normalized growth for this entry: "O=C(O)c1ccc(S(=O)(=O)N(Cl)Cl)cc1" 0.967

----------
Assay: chemical genetic growth profiling, strain panel (AID 1159580)
Details: S. cerevisiae deletion strains, growth OD, locus YAR019C, strain CDC15
The campaign covered roughly 5,500 compounds. About 2,000 (36%) were called active. About 18% were inconclusive and are not listed. Rule as the data show it: active = normalized growth mostly below about 0.91 (no sharp cut-off); inconclusive = no clear call, values can overlap the other calls; inactive = mostly above about 0.92. Some of the results follow.
Choose one outcome from this list and give only that: active, inactive

Solved entries (count: 4):
molecule=COC(=O)c1sccc1NS(=O)(=O)c1cc(Cl)cc(Cl)c1 assigned_class=inactive
molecule=CSc1n[nH]c(-c2cc(C(C)(C)C)oc2C)c1C#N assigned_class=inactive
molecule=Cc1ccc(-c2csc(-c3ccncc3)n2)cc1 assigned_class=active
molecule=COC(=O)C1=C(Nc2ccccc2NS(=O)(=O)c2ccc(C(F)(F)F)cc2Cl)CSC1 assigned_class=inactive

What is the recorded call for this molecule in the test? "O=C(NOC(=O)c1ccccc1)c1ccccc1" active

What call does the record list for "Cc1ccc(-n2cccc2)c(NS(=O)(=O)c2ccc(-c3ccno3)s2)c1" ? inactive

Please state the recorded outcome for this molecule: O=[N+]([O-])c1cccc(C2CC(c3ccccc3)=Nc3ccccc3S2)c1 (configuration not stated) inactive

Lab log entry: "Brc1ccc(-c2csc(-c3ccncc3)n2)cc1" — outcome as called in the assay? inactive

What was the test verdict on "O=S(=O)(Nc1ccccc1Oc1ccccc1)c1ccc(-c2ccno2)s1" ? inactive

// return assay outcome for C#CCSC1=NNC(c2ccccn2)S1 (configuration not stated) active

# lookup: test call for O=C(CSC1=NNC(c2ccccn2)S1)Nc1ccccc1 (configuration not stated) inactive

Answer briefly: the call reported for "CSc1sc(C(=O)Sc2ccccc2)cc1S(=O)(=O)C(C)C" in this assay. inactive

----------
# normalized growth per entry
Test: chemical genetic growth profiling, strain panel (AID 1159580)
Conditions: S. cerevisiae deletion strains, growth OD, locus YJL115W, strain asf1, hits give low values
About 2,000 (36%) of roughly 5,500 compounds were called active. Inconclusive results (about 18%) are left out. Some of the results follow.
// no unit string in output, number only

Example results:
molecule="CC(C)CCCC(C)C1CCC2C3CC(=O)[C@H]4C[C@@H](O)CC[C@]4(C)C3CC[C@]12C (some centres undefined)" measured_quantity="normalized growth" assay_result=0.991
molecule=COc1cc(C/C=C/c2ccccc2)c(OC)cc1O measured_quantity="normalized growth" assay_result=0.939

Need normalized growth, item CC(C)CCCC(C)C1CCC2C3C[C@@H](O)[C@@]4(O)C[C@@H](O)CC[C@]4(C)C3CC[C@]12C (some centres undefined) 0.994

Which normalized growth value belongs to CC(C)CCCC(C)[C@H]1CCC2C3CC=C4C[C@@H](O)CC[C@]4(C)C3CC[C@@]21C (some centres undefined) ? 0.981

----------
Measured normalized growth of individual entries
Experiment: chemical genetic growth profiling, strain panel (AID 1159580)
Conditions: S. cerevisiae deletion strains, growth OD, locus YDR069C, strain doa4, hits give low values
Hit rate of the full screen: of about 5,500 compounds, about 2,000 (36%) were called active. Another 18% or so got no clear call; they are omitted. The list shows a part of the results.
The response must contain the number and no unit.

Examples with answers:
compound_string=COc1ccc([C@@H]2CC(=O)c3c(O)cc(O[C@@H]4O[C@H](CO[C@H]5O[C@@H](C)[C@H](O)[C@@H](O)[C@H]5O)[C@@H](O)[C@H](O)[C@H]4O)cc3O2)cc1O assay_result=0.985
compound_string=CC(=O)N[C@@H](Cc1c[nH]c2ccccc12)C(N)=O assay_result=1.03
compound_string=Oc1cccc(O)c1 assay_result=0.976
compound_string=C=C1C[C@]23C[C@@]1(O)CC[C@H]2[C@@]12C=C[C@H](O)[C@@](C)(C(=O)O1)[C@H]2[C@@H]3C(=O)O assay_result=1.03

Shifting focus to the compound that follows.
Entry "CC[N+](C)(C)c1cccc(O)c1" has what normalized growth? 1.02

----------
// reported normalized growth for each item listed
Assay: chemical genetic growth profiling, strain panel (AID 1159580);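 note: tested at 20 µM; growth read once vehicle control cultures reached saturation at 30 °C; 1 = growth at the plate median or of vehicle wells; lower values mean less growth of the strain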
Details: S. cerevisiae deletion strains, growth OD, locus YIL073C, strain SPO22, hits give low values
In all, about 5,500 compounds went through this assay and about 2,000 (36%) were called active. Not shown: some 18% with an inconclusive outcome. The list shows a part of the results.
Answer as a number with no unit attached.

compound_string=CCCSc1ccc2nc(NC(=O)OC)[nH]c2c1 assay_result=0.894
compound_string=COc1c(C)c2c(c(C)c1Cl)Oc1c(Cl)c(OC)c(Cl)c(C)c1C(=O)O2 assay_result=1.08
compound_string=OC[C@H]1O[C@@H](O[C@@H]2[C@@H](CO)O[C@](O)(CO)[C@H]2O)[C@H](O)[C@@H](O)[C@H]1O assay_result=0.973

normalized growth for "C=C1c2c(Cl)ccc(O)c2C(O)=C2C(=O)[C@]3(O)C(O)=C(C(N)=O)C(=O)[C@@H](N(C)C)[C@@H]3[C@@H](O)[C@H]12" ? 0.952

Tell me the measured normalized growth of "CC(=O)Oc1c(Cl)c(C)c2c(c1Cl)OC(=O)c1c(C)c(Cl)c(OC(C)=O)c(Cl)c1O2" , please. 1.03

Can you look up the measured normalized growth of "COC(=O)c1c(OC)cc2c(c1C)Oc1c(Cl)c(OC(C)=O)c(Cl)c(C)c1C(=O)O2" for me? 1.09

Any idea what normalized growth was measured for "OC[C@H]1O[C@@](CO)(O[C@@H]2O[C@H](CO)[C@@H](O)[C@H](O)[C@H]2O)[C@@H](O[C@@H]2O[C@H](CO)[C@@H](O)[C@H](O)[C@H]2O)[C@@H]1O" ? 1.05

GET /values?readout=normalized growth&item= "CC(=O)Oc1ccc(C(c2ccc(OC(C)=O)cc2)c2ccccn2)cc1" 1.01

----------
# maps each entry to its normalized growth
Assay: chemical genetic growth profiling, strain panel (AID 1159580);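 note: tested at 20 µM; growth read once vehicle control cultures reached saturation at 30 °C; 1 = growth at the plate median or of vehicle wells; lower values mean less growth of the strain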
Details: S. cerevisiae deletion strains, growth OD, locus YLR418C, strain cdc73, hits give low values
In all, about 5,500 compounds went through this assay and about 2,000 (36%) were called active. Roughly 18% stayed inconclusive and do not appear here. The list shows a part of the results.
No unit in the answer, please; the number alone is enough.

molecule="CC(=O)O[C@@H]1CC2C(C)(C)C(=O)C=C[C@]2(C)C2CC[C@]3(C)C(=CC(=O)O[C@H]3c3ccoc3)[C@@]21C (stereo partly drawn)" measured_quantity="normalized growth" assay_result=1.04
molecule=COc1ccc([C@@H]2CC(=O)c3c(O)cc(O[C@@H]4O[C@H](CO[C@H]5O[C@@H](C)[C@H](O)[C@@H](O)[C@H]5O)[C@@H](O)[C@H](O)[C@H]4O)cc3O2)cc1O measured_quantity="normalized growth" assay_result=1

Requested read-out: normalized growth. Entry: CC(=O)OCC(=O)[C@@]1(O)[C@H](C)CC2C3CCC4=CC(=O)C=C[C@]4(C)[C@@]3(F)[C@@H](O)C[C@@]21C (stereo partly drawn) 0.954

----------
Test: chemical genetic growth profiling, strain panel (AID 1159580);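 note: tested at 20 µM; growth read once vehicle control cultures reached saturation at 30 °C; 1 = growth at the plate median or of vehicle wells; lower values mean less growth of the strain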
Conditions: S. cerevisiae deletion strains, growth OD, locus YJL095W, strain BCK1 (second series), hits give low values
In all, about 5,500 compounds went through this assay and about 2,000 (36%) were called active. Not shown: some 18% with an inconclusive outcome. Some of the results follow.
Measured normalized growth of individual entries
Simply state the number, no unit and no words.

Reference set, count: 9
compound=N=C(N)N assay_result=0.998
compound="CC(=O)OCC(=O)[C@@]1(O)[C@H](C)CC2C3CCC4=CC(=O)C=C[C@]4(C)[C@@]3(F)[C@@H](O)C[C@@]21C (stereo not given in full)" assay_result=0.968
compound="CC(CCC(=O)O)[C@H]1CCC2C3C(=O)C[C@@H]4CC(=O)CC[C@]4(C)C3CC(=O)[C@@]21C (stereo not given in full)" assay_result=0.991
compound=CC(=O)c1ccc(O)c(CC=C(C)C)c1 assay_result=0.964
compound=C=C1C[C@]23C[C@@]1(O)CC[C@H]2[C@@]12C=C[C@H](O)[C@@](C)(C(=O)O1)[C@H]2[C@@H]3C(=O)O assay_result=1.02
compound="C[C@H](CCC(=O)O)[C@H]1CCC2C3C(=O)CC4CC(=O)CC[C@]4(C)C3CC(=O)[C@@]21C (stereo not given in full)" assay_result=0.969
compound=CC[N+](C)(C)c1cccc(O)c1 assay_result=1.01
compound="CC(CCC(=O)O)[C@H]1CCC2C3CC[C@@H]4C[C@H](O)CC[C@]4(C)C3C=C[C@@]21C (stereo not given in full)" assay_result=1
compound=Oc1cccc(O)c1 assay_result=0.987

Now for a further compound.
Fill in the blank: the reported normalized growth of CC(Cc1cccc(C(F)(F)F)c1)NCCOC(=O)c1ccccc1 (stereo not given) is ____. 0.954
